Record form. Attribute: GI50. Fill in for each entry.
# System: M14
# procedureDetails: NCI tumour cell line growth inhibition, 48 h
Activity calls are given as the source filed them. No stated cut-off is given here; in the data, active = GI50 up to about 1.1 µM and inactive = higher.

Check out these entries, answers already filled in.
>  <compound>
N#C/C(=C\c1ccc(O)cc1O)C(N)=O

>  <GI50>
82.2 µM (inactive)

$$$$
>  <compound>
Clc1ccc(NCc2nnc(COc3ccc(OCc4nnc(CNc5ccc(Cl)cc5)o4)c(Cl)c3)o2)cc1

>  <GI50>
> 100 µM (inactive)

$$$$
>  <compound>
CC1(C)CCc2cc3c(cc2O1)OC(C)(C)CC3=O

>  <GI50>
> 100 µM (inactive)

$$$$
>  <compound>
COC(=O)c1sc(=NC(=S)N2CCCCC2)sc1C(=O)OC

>  <GI50>
> 100 µM (inactive)

$$$$
>  <compound>
C/C(=N\N=C1/C(=O)OC(c2ccccc2)=C1C(=O)c1ccccc1)c1ccc([N+](=O)[O-])cc1

>  <GI50>
65.5 µM (inactive)

$$$$

// for each compound below, give its GI50
1. Cc1cc(C)n(C2=NS(=O)(=O)c3ccccc3N2C)n1
2. COC(=O)/C(C#N)=C(/NCc1ccccc1)Nc1ccccc1
3. CCCCCC1CC(C(C)=O)CN1c1ccc(F)cc1 (configuration not stated)
4. COc1ccc(-n2cnn3c(=O)c4cn[nH]c4nc23)cc1
5. Cc1ccc2c3c4c(ccc13)C(C)(C)OC4=C(C(C)C)C2=O
6. COc1ccc2[nH]c3ccc4cc[n+](CCN5CCC(C6CCN(CC[n+]7ccc8ccc9[nH]c%10ccc(OC)cc%10c9c8c7)CC6)CC5)cc4c3c2c1
7. O=C(CC(c1ccccc1)C(C(=O)c1ccncc1)C(CC(=O)c1ccncc1)c1ccccc1)c1ccncc1 (configuration not stated)

# output
> 100 µM (inactive)
42.4 µM (inactive)
35 µM (inactive)
> 10 µM (inactive)
45.1 µM (inactive)
> 50 µM (inactive)
> 100 µM (inactive)

// for each compound below, give its GI50
1. CS(=O)(=O)OCC1=C(COS(C)(=O)=O)C(=O)c2c(O)ccc(O)c2C1=O
2. CCOC(=O)c1c(C)noc1/N=N/N(CCO)CCO
3. O=c1n(/N=C/c2ccccc2)c(=O)n2n1C1C=CC2CC1

# output
> 100 µM (inactive)
49.5 µM (inactive)
> 100 µM (inactive)

// for each compound below, give its GI50
1. CC1(C)N=c2c(ncn2N)=C(C(N)=O)N1
2. C#CCn1c(=O)c(C)cn(/C(=C\C(=O)OCC)C(=O)OCC)c1=O
3. CON(C)C(=O)CNC(=O)OCC1c2ccccc2-c2ccccc21
4. Cn1c(=O)c2c(nc3n(Cc4ccccc4)c(=O)c(Br)cn23)n(C)c1=O
5. COc1cc2ccnc(-c3n[nH]c4cc(OC)c(OC)cc34)c2cc1OC
6. CCOC(=O)/C(=N/Nc1ccc(Cl)cc1)N1C(=S)N(C)N=C(C)C=C1S
7. N#C/N=C(/N)NCN/C(N)=N\C#N

# output
["> 100 µM (inactive)", "4.19 µM (inactive)", "> 100 µM (inactive)", "> 100 µM (inactive)", "> 100 µM (inactive)", "> 100 µM (inactive)", "> 100 µM (inactive)"]

* * *

# System: SW-620
# procedureDetails: NCI tumour cell line growth inhibition, 48 h
The source made the active and inactive calls. Rule as the data show it: active = GI50 up to about 1.1 µM and inactive = higher.
Record form. Attribute: GI50. Fill in for each entry.

>  <compound>
CCOC(=O)c1ccc(N[C@@H]2c3cc4c(cc3C(c3cc(OC)c(O)c(OC)c3)[C@H]3C(=O)OCC32)OCO4)cc1O (stereo partly specified)

>  <GI50>
0.942 µM (active)

$$$$
>  <compound>
O=C1CCC(=O)N1n1c(Cc2ccccc2)n[nH]c1=O

>  <GI50>
> 100 µM (inactive)

$$$$

// for each compound below, give its GI50
1. N#Cc1c(O)c(/N=N/c2ccccc2F)c(=O)n2c1[nH]c1ccccc12
2. CCCCN1C(=O)C[C@H]2[C@@H]3CCc4cc(OCCN5CCCC5)ccc4[C@H]3CC[C@]2(C)C1=O

# output
1. 63.2 µM (inactive)
2. 11.5 µM (inactive)

* * *

# Tested on: NCI-H522
# procedureDetails: NCI tumour cell line growth inhibition, 48 h
Active and inactive are the calls of the source. Cut-off read from the data, not from the text of the source: active = GI50 up to about 1.1 µM and inactive = higher.
Record form. Attribute: GI50. Fill in for each entry.

Check out these entries, answers already filled in.
>  <compound>
Cc1ccc2c3c4c(ccc13)C(C)(C)OC4=C(C(C)C)C2=O

>  <GI50>
26.8 µM (inactive)

$$$$
>  <compound>
Brc1ccc(/C(N=N/C(=N\Sc2ccccc2)c2ccc(Br)cc2)=N/Sc2ccccc2)cc1

>  <GI50>
> 100 µM (inactive)

$$$$

// for each compound below, give its GI50
1. CCN(CC)c1ccc2c(c1)Oc1ccc(N(C(C)=O)c3ccccc3)cc1C21OC(=O)c2ccccc21 (stereo not drawn)
2. CC(=O)OCC1OC(n2cc(F)c(=O)[nH]c2=O)C(NC(=O)OCc2ccccc2)C(OC(C)=O)C1OC(C)=O (stereo not drawn)
3. Cc1sc2nc(N(C)C)oc(=O)c2c1C
4. Cc1cc(Cl)ccc1NC(=O)C(=O)C(C(=O)c1ccccc1)C1OC(=O)c2ccccc21 (stereo not drawn)

# output
1: 62.7 µM (inactive); 2: > 95.3 µM (inactive); 3: 30.8 µM (inactive); 4: > 100 µM (inactive)

// for each compound below, give its GI50
1. CC1(C)CCc2cc3c(cc2O1)OC(C)(C)CC3=O
2. Cc1ccc(-c2n[nH]c(=O)n2/N=C\c2ccccc2O)cc1

# output
1. 2.39 µM (inactive)
2. > 100 µM (inactive)

// for each compound below, give its GI50
1. CCCCC(C)C1CCC2(C)C=CC(=O)C(C)=C2C1O (stereo not drawn)
2. N#Cc1c(O)c(/N=N/c2ccccc2F)c(=O)n2c1[nH]c1ccccc12
3. Cc1ccc(-c2n[nH]c(CC#N)n2)cc1
4. O=[N+]([O-])c1ccc(N2N=C(c3c(O)ccc4ccccc34)CC2c2ccc(Cl)cc2)c([N+](=O)[O-])c1 (stereo not drawn)

# output
["> 100 µM (inactive)", "27.9 µM (inactive)", "> 100 µM (inactive)", "31.5 µM (inactive)"]

# input // lookup GI50 for CSc1nnc(CCC(=O)Nc2c(C)cccc2C)o1
# output > 100 µM (inactive)

* * *

# System: 786-0
# procedureDetails: NCI tumour cell line growth inhibition, 48 h
Calls of active or inactive are those of the source. No stated cut-off is given here; in the data, active = GI50 up to about 1.1 µM and inactive = higher.
Use one of these outcomes when replying: active, inactive

Consider the worked cases shown below.
>  <molecule>
Cc1cc(S(=O)(=O)O)c(NC(=O)C(=O)Cc2cc(=O)oc3cc(O)ccc23)cc1Cl

>  <systemTested>
786-0

>  <class>
inactive

$$$$
>  <molecule>
COC(=O)c1ccc2c(c1)CCN2C(=O)c1cc2c(cc1Br)OCO2

>  <systemTested>
786-0

>  <class>
active

$$$$
>  <molecule>
C[C@]12CCc3nn(-c4ccccc4)nc3C1CC[C@@H]1C2CC[C@]2(C)C(=O)CCC12 (some centres not stated)

>  <systemTested>
786-0

>  <class>
inactive

$$$$
>  <molecule>
COc1ccc2c(c1)OCC1Cc3ccccc3OC21 (configuration not stated)

>  <systemTested>
786-0

>  <class>
inactive

$$$$
>  <molecule>
COC(=O)/C(C#N)=C(/NCc1ccccc1)Nc1ccccc1

>  <systemTested>
786-0

>  <class>
inactive

$$$$
>  <molecule>
NC(CCc1ccccc1)(C(=O)O)c1ccccc1 (configuration not stated)

>  <systemTested>
786-0

>  <class>
inactive

$$$$
>  <molecule>
Cc1ccc2c3c4c(ccc13)C(C)(C)OC4=C(C(C)C)C2=O

>  <systemTested>
786-0

>  <class>
inactive

$$$$
>  <molecule>
COC(=O)CC1(CNC(=O)OCc2ccccc2)OCCO1

>  <systemTested>
786-0

>  <class>
inactive

$$$$
>  <molecule>
Cn1cnc([N+](=O)[O-])c1Sc1nnc(-c2ccc(Cl)cc2)n1C

>  <systemTested>
786-0

>  <class>
inactive

$$$$
>  <molecule>
COc1cccc(-c2cc(O)c3c(C)cc(C)nc3n2)c1

>  <systemTested>
786-0

>  <class>
active

$$$$

# input Assay outcome for CCSC(=O)C1(C)OC2CCCCC2C1=O (configuration not stated) : what was it?
# output inactive

# input Assay outcome for CC[S+]([O-])C(=O)N(O)c1ccc(Cl)cc1 (configuration not stated) : what was it?
# output inactive

# input Assay outcome for O=C(O)c1ccc(OCc2ccccc2)c(Cl)c1 : what was it?
# output inactive

# input Assay outcome for O=C(NNC(=O)c1c(Cl)c(Cl)c(Cl)c(Cl)c1-c1nc2ccccc2[nH]1)c1ccc(Cl)cc1 : what was it?
# output inactive

# input Assay outcome for COc1ccc(/C=C2\C(=O)N(C(=O)Cc3ccccc3)N=C2C)cc1OC : what was it?
# output inactive

# input Assay outcome for O=C(CC(c1ccccc1)C(C(=O)c1ccncc1)C(CC(=O)c1ccncc1)c1ccccc1)c1ccncc1 (configuration not stated) : what was it?
# output inactive

# input Assay outcome for CCOC(=O)C(Cc1cc(OC)c(CC(C(=O)OCC)C(=O)OCC)cc1OC)C(=O)OCC : what was it?
# output inactive

# input Assay outcome for Cc1ccc(C2(C)NC(=S)N(NC(N)=S)C2=S)cc1 (configuration not stated) : what was it?
# output inactive

# input Assay outcome for Cc1ccc(-c2n[nH]c(CC#N)n2)cc1 : what was it?
# output inactive

# input Assay outcome for O=C(CC(C(=O)c1ccsc1)c1ccsc1)c1ccsc1 (configuration not stated) : what was it?
# output inactive

# input Assay outcome for Oc1ccc(Cn2c(-c3ccc(O)c(O)c3)nc3ccccc32)cc1O : what was it?
# output inactive

# input Assay outcome for NS(=O)(=O)c1cc2c(cc1Cl)NC(Cc1ccccc1)NS2(=O)=O (configuration not stated) [BENZYLHYDROCHLOROTHIAZIDE] : what was it?
# output inactive
